Tested on: Escherichia coli
Test: minimum inhibitory concentration (MIC)
Details: isolate (source animal id): 144
Measured minimum inhibitory concentration, listed per entry for reference.

Problem: What value of measured minimum inhibitory concentration is listed for CN(C)[C@@H]1C(O)=C(C(N)=O)C(=O)[C@@]2(O)C(O)=C3C(=O)c4c(O)cccc4[C@@](C)(O)[C@H]3C[C@@H]12 ?
Result: > 8 mg/L

Problem: Now consider CCN1CCN(c2cc3c(cc2F)c(=O)c(C(=O)O)cn3C2CC2)CC1 and answer again.
Result: > 2 mg/L

Problem: Now consider CS(=O)(=O)c1ccc([C@@H](O)[C@@H](CF)NC(=O)C(Cl)Cl)cc1 and answer again.
Result: > 8 mg/L

Problem: Now consider CNC(C)C1CCC(N)C(OC2C(N)CC(N)C(OC3OCC(C)(O)C(NC)C3O)C2O)O1 (stereo not given) and answer again.
Result: ≤ 1 mg/L

Next up:
Problem: What value of measured minimum inhibitory concentration is listed for COc1cc(NS(=O)(=O)c2ccc(N)cc2)nc(OC)n1 ?
Result: > 256 mg/L

* * *

Measured minimum inhibitory concentration, listed per entry for reference.
System: Pasteurella multocida
Experiment: minimum inhibitory concentration (MIC)
Conditions: isolate (source animal id): 135

Completed entries (count: 3):
Problem: Observed minimum inhibitory concentration on Pasteurella multocida for CN[C@@H]1[C@H](O)[C@H](NC)[C@H]2O[C@@]3(O)C(=O)C[C@@H](C)O[C@H]3O[C@@H]2[C@H]1O , please.
Result: > 64 mg/L

Problem: Now consider CCC[C@@H]1C[C@@H](C(=O)N[C@@H]([C@H]2O[C@H](SC)[C@H](O)[C@@H](O)[C@H]2O)[C@H](C)Cl)N(C)C1 and answer again.
Result: > 16 mg/L

Problem: Now consider CN(C)[C@@H]1C(O)=C(C(N)=O)C(=O)[C@@]2(O)C(O)=C3C(=O)c4c(O)cccc4[C@@](C)(O)[C@H]3C[C@@H]12 and answer again.
Result: > 8 mg/L

Next up:
Problem: Observed minimum inhibitory concentration on Pasteurella multocida for CNC(C)C1CCC(N)C(OC2C(N)CC(N)C(OC3OCC(C)(O)C(NC)C3O)C2O)O1 (centres undefined) , please.
Result: 8 mg/L

* * *

Test system: Enterococcus spp.
Experiment: minimum inhibitory concentration (MIC)
Conditions: isolate (source animal id): 298
Measured minimum inhibitory concentration, listed per entry for reference.
Give the value, in units of mg/L, as a plain number.

Problem: What value of measured minimum inhibitory concentration is listed for CC[C@H]1OC(=O)C[C@@H](O)[C@H](C)[C@@H](O[C@@H]2O[C@H](C)[C@@H](O)[C@H](N(C)C)[C@H]2O)[C@@H](CCN2C[C@H](C)C[C@H](C)C2)C[C@@H](C)C(=O)/C=C/C(C)=C/[C@@H]1CO[C@@H]1O[C@H](C)[C@@H](O)[C@@H](OC)[C@H]1OC ?
Result: 4

Next up:
Problem: What value of measured minimum inhibitory concentration is listed for CC[C@H]1OC(=O)C[C@@H](O)[C@H](C)[C@@H](O[C@@H]2O[C@H](C)[C@@H](O)[C@H](N(C)C)[C@H]2O)[C@@H](CCN2CCCCC2)C[C@@H](C)C(=O)/C=C/C(C)=C/[C@@H]1CN1CCCCC1 ?
Result: 8

src = the supplement of paper PMC8612539
